assay.text: amyloid nucleation score (Sup35N fusion, yeast selection) (log enrichment); library NNK1; higher = more nucleation; inactive = no reads after selection;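 also: zero at mode of non-aggregating sequences after 7 days selection at 30°C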
test.readout: amyloid nucleation score

INSERT INTO results (substance, quantitative_readout) VALUES
  ('FLSGYGSCLELANVIRWLEN', 1.19),
  ('SGAVCIQALKVDTQCFADMI', -0.413),
  ('MGCWCLASRDLTKT', -0.485),
  ('TLTSRVENKFRMVIL', 3.46),
  ('GWLTYSPRSALIDHERRSLQ', 0.879),
  ('IMSYLKTLSPVIAMRTIERP', 0.821),
  ('SGAGVGSPVVKELSWFKLKV', 0.331),
  ('ILQFFDILSIYVCGWEHEL', 6.27),
  ('EVMPPLKLPRHFEEIRAEAG', -0.184),
  ('CRLIVISTTYIIKAQKCLIG', -0.512),
  ('YVADGLKDKQRCSACFDASS', 4.93),
  ('SPPFQSELMLPLRLSGLVSS', 1.28),
  ('LPFVDLKFL', 0.374),
  ('RVGESVI', 0.348),
  ('AVLSPGWWESLYPRRVVHSC', -0.354);
